- assayed.target: Recombinant human JAK3 catalytic domain (Homo sapiens (Human), UniProt P52333)
- Sequence (P52333 822-1111): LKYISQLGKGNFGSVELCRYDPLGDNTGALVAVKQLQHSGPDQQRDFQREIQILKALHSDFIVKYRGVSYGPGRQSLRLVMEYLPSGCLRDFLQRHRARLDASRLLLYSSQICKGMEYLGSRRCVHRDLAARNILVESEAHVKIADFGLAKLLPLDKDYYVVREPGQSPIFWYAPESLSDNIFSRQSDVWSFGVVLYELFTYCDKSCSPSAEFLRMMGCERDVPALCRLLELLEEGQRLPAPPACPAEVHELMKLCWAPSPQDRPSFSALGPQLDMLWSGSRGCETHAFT
- test.name: JAK3 kinase assay (Z'-LYTE, Tyr 6 Peptide)
- Format: biochemical
experimental.readout: IC50

[[record]]
input_smiles = "CCS(=O)(=O)Nc1ccc(N(C)[C@@H]2CCN(c3ncnc4[nH]ccc34)C2)nc1"
experimental_readout = "IC50"
result = "100 to 1000 nM"


---

- assayed.target: Recombinant human JAK2 catalytic domain (Homo sapiens (Human))
- Sequence (O60674 849-1124): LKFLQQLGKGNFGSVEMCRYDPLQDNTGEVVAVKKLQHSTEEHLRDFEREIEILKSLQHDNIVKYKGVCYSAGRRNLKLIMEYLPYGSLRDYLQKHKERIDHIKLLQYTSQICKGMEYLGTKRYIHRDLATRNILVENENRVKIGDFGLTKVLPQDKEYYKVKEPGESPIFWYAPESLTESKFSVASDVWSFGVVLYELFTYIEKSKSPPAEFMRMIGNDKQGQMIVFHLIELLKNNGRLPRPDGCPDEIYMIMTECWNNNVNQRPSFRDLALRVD
- test.name: JAK2 kinase assay (Z'-LYTE, Tyr 6 Peptide)
- Format: biochemical
- protocol.conditions: read-out: JAK2 (enzyme, IC50)
Recorded measurements of IC50, one per entry
experimental.readout: IC50 (nM)

[[record]]
input_smiles = "CNS(=O)(=O)N(C)[C@@H]1CCN(c2ncnc3[nH]ccc23)C1"
result_number = 98

[[record]]
input_smiles = "CN(c1ccc(C#N)c(F)c1)[C@@H]1CCN(c2ncnc3[nH]ccc23)C1"
result_number = 48.7

